biological target: plasma purified human complement protein C3 (human) (UniProt P01024); test: cell-based or functional assay
Sequence (P01024 23-667, chain 1 of 2): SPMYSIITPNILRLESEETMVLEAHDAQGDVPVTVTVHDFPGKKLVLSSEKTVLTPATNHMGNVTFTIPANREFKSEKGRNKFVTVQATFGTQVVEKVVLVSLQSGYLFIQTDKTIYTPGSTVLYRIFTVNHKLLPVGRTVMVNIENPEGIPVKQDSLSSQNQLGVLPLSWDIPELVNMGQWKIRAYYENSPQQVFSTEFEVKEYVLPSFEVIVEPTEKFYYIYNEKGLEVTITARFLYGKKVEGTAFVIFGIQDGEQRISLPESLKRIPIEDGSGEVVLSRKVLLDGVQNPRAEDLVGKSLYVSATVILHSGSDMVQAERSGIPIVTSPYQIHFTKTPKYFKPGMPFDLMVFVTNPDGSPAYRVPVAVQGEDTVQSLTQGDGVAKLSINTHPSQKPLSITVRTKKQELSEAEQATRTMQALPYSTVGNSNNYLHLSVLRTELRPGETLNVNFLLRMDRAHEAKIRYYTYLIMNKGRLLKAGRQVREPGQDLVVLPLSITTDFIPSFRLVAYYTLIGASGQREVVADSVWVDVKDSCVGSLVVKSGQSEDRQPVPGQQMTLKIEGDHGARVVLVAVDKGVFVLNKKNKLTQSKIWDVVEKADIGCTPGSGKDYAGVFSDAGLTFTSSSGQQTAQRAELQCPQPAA
Sequence (P01024 672-1663, chain 2 of 2): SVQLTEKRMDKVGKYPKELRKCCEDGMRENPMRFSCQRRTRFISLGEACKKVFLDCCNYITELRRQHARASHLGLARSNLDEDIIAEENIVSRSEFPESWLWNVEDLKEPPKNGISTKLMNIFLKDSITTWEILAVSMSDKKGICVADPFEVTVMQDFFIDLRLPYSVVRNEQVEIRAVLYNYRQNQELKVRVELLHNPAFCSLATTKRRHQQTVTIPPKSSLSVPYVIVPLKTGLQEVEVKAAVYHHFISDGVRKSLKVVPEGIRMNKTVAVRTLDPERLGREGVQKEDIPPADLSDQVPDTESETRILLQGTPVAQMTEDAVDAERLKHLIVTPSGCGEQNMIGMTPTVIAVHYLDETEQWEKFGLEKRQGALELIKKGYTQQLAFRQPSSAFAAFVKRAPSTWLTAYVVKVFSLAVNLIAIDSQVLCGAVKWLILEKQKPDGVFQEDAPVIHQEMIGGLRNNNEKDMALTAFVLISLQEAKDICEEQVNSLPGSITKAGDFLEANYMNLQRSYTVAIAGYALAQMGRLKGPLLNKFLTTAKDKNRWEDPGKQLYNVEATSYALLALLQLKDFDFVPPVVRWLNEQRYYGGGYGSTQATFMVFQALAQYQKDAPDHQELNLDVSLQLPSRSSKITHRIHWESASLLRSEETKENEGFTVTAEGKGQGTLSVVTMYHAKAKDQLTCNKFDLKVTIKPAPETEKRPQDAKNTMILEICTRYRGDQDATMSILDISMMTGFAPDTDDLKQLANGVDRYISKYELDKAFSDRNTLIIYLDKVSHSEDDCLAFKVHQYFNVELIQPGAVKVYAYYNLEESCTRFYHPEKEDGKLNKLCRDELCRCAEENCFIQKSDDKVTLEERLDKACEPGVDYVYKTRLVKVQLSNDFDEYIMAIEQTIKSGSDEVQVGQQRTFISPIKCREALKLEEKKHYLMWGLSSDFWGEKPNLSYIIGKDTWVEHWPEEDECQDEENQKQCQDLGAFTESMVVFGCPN
Readout Kind: EC50 of hC3 cleavage (nM)
Numbers only here, please. The scale is nM.

Worked cases, answers included:
{"Binder": "MTSP-1 Q38H/I41S/D60bT/F60eS/Y60gW/F97D/F99L/C122S/G151H/Q175L/Q192D (enzyme) VVGGTDADEGEWPWQVSLHALGHGHSCGASLISPNWLVSAAHCYIDTRGSRWSDPTQWTAFLGLHDQSQRSAPGVQERRLKRIISHPFFNDDTLDYDIALLELEKPAEYSSMVRPISLPDASHVFPAGKAIWVTGWGHTQYGGTHALILQKGEIRVINQTTCENLLPQLITPRMMCVGFLSGGVDSCDGDSGGPLSSVEADGRIFQAGVVSWGDGCAQRNKPGVYTRLPLFRDWIKENTGV", "Unit Abbreviation": "nM", "EC50 of hC3 cleavage": 5.53}
{"Binder": "MTSP-1 H40R/I41H/Y60gL/F97D/F99L/C122S/G151N (enzyme) VVGGTDADEGEWPWQVSLHALGQGRHCGASLISPNWLVSAAHCYIDDRGFRLSDPTQWTAFLGLHDQSQRSAPGVQERRLKRIISHPFFNDDTLDYDIALLELEKPAEYSSMVRPISLPDASHVFPAGKAIWVTGWGHTQYGGTNALILQKGEIRVINQTTCENLLPQQITPRMMCVGFLSGGVDSCQGDSGGPLSSVEADGRIFQAGVVSWGDGCAQRNKPGVYTRLPLFRDWIKENTGV", "Unit Abbreviation": "nM", "EC50 of hC3 cleavage": 54.9}

// next entry
Q. Quick check: EC50 of hC3 cleavage of MTSP-1 I41R/F97T/ins97aE/T98G/F99L/C122S/G151N/Q175I/Q192E (enzyme) VVGGTDADEGEWPWQVSLHALGQGHRCGASLISPNWLVSAAHCYIDDRGFRYSDPTQWTAFLGLHDQSQRSAPGVQERRLKRIISHPFFNDTEGLDYDIALLELEKPAEYSSMVRPISLPDASHVFPAGKAIWVTGWGHTQYGGTNALILQKGEIRVINQTTCENLLPQIITPRMMCVGFLSGGVDSCEGDSGGPLSSVEADGRIFQAGVVSWGDGCAQRNKPGVYTRLPLFRDWIKENTGV ?
A. 1030
